The measured values listed here are drawn from patent US10457703B2.

target_entity: UniProtKB Q96RI1
run_description: Human FXR (NR1H4) Assay (Gal4 promoter driven luciferase reporter, Indigo Bioscience kit)
Format: cell-based
conditions_used: read-out: Efficacy (%)
Kindly state Emax for each of the entries shown.
One number for each entry, in %.

Example compounds with recorded Emax:
CC[C@H]1[C@@H](O)[C@@H]2[C@H](CC[C@]3(C)[C@@H]([C@H](C)COC(=O)N4CCCCC4)CC[C@@H]23)[C@@]2(C)CC[C@@H](O)C[C@@H]12; 1
CC[C@H]1[C@@H](O)[C@@H]2[C@H](CC[C@]3(C)[C@@H]([C@H](C)CCOC(=O)NCc4ccc(O)cc4)CC[C@@H]23)[C@@]2(C)CC[C@@H](O)C[C@@H]12; 240
CC[C@H]1[C@@H](O)[C@@H]2[C@H](CC[C@]3(C)[C@@H]([C@H](C)CCOC(=O)N4CC[C@@H](O)C4)CC[C@@H]23)[C@@]2(C)CC[C@@H](O)C[C@@H]12; 143
CC[C@H]1[C@@H](O)[C@@H]2[C@H](CC[C@]3(C)[C@@H]([C@H](C)CCOC(=O)N[C@H]4CC[C@H](O)CC4)CC[C@@H]23)[C@@]2(C)CC[C@@H](O)C[C@@H]12; 392
CC[C@H]1[C@@H](O)[C@@H]2[C@H](CC[C@]3(C)[C@@H]([C@H](C)CCOC(=O)N(CC)CC)CC[C@@H]23)[C@@]2(C)CC[C@@H](O)C[C@@H]12; 266
CC[C@H]1[C@@H](O)[C@@H]2[C@H](CC[C@]3(C)[C@@H]([C@H](C)CCOC(=O)NS(=O)(=O)c4cccc5ccccc45)CC[C@@H]23)[C@@]2(C)CC[C@@H](O)C[C@@H]12; 372
CC[C@H]1[C@@H](O)[C@@H]2[C@H](CC[C@]3(C)[C@@H]([C@H](C)CCOC(=O)NS(=O)(=O)C4CCCC4)CC[C@@H]23)[C@@]2(C)CC[C@@H](O)C[C@@H]12; 321
CC[C@H]1[C@@H](O)[C@@H]2[C@H](CC[C@]3(C)[C@@H]([C@H](C)CCOC(=O)N4CCc5sccc5C4)CC[C@@H]23)[C@@]2(C)CC[C@@H](O)C[C@@H]12; 209

Respectfully, I request Emax for each entry included below.
1. CC[C@H]1[C@@H](O)[C@@H]2[C@H](CC[C@]3(C)[C@@H]([C@H](C)CCOC(=O)Nc4ccc(C(C)(C)C)cc4)CC[C@@H]23)[C@@]2(C)CC[C@@H](O)C[C@@H]12
2. CC[C@H]1[C@@H](O)[C@@H]2[C@H](CC[C@]3(C)[C@@H]([C@H](C)COC(=O)NS(=O)(=O)c4ccc(OC(C)(C)C)cc4)CC[C@@H]23)[C@@]2(C)CC[C@@H](O)C[C@@H]12
3. CC[C@H]1[C@@H](O)[C@@H]2[C@H](CC[C@]3(C)[C@@H]([C@H](C)CCOC(=O)NCC(C)(C)C)CC[C@@H]23)[C@@]2(C)CC[C@@H](O)C[C@@H]12
4. CC[C@H]1[C@@H](O)[C@@H]2[C@H](CC[C@]3(C)[C@@H]([C@H](C)CCOC(=O)NS(=O)(=O)c4ccccc4OC(F)(F)F)CC[C@@H]23)[C@@]2(C)CC[C@@H](O)C[C@@H]12
5. CC[C@H]1[C@@H](O)[C@@H]2[C@H](CC[C@]3(C)[C@@H]([C@H](C)COC(=O)NS(=O)(=O)c4ccc(-c5ccc(F)cc5)cc4)CC[C@@H]23)[C@@]2(C)CC[C@@H](O)C[C@@H]12
6. CC[C@H]1[C@@H](O)[C@@H]2[C@H](CC[C@]3(C)[C@@H]([C@H](C)CCOC(=O)NCCO)CC[C@@H]23)[C@@]2(C)CC[C@@H](O)C[C@@H]12
7. CC[C@H]1[C@@H](O)[C@@H]2[C@H](CC[C@]3(C)[C@@H]([C@H](C)CCOC(=O)NS(=O)(=O)c4cccc(C(C)(C)C)c4)CC[C@@H]23)[C@@]2(C)CC[C@@H](O)C[C@@H]12
8. CC[C@H]1[C@@H](O)[C@@H]2[C@H](CC[C@]3(C)[C@@H]([C@H](C)CCOC(=O)NC4CCCC4O)CC[C@@H]23)[C@@]2(C)CC[C@@H](O)C[C@@H]12 (stereo partly drawn)

Result:
1: 30; 2: 261; 3: 410; 4: 383; 5: 194; 6: 230; 7: 290; 8: 288

Dear colleague, could you send me Emax for each of the items below? Thanks.
1. CC[C@H]1[C@@H](O)[C@@H]2[C@H](CC[C@]3(C)[C@@H]([C@H](C)COC(=O)NS(=O)(=O)c4ccc(-n5ccnc5)nc4)CC[C@@H]23)[C@@]2(C)CC[C@@H](O)C[C@@H]12
2. CC[C@H]1[C@@H](O)[C@@H]2[C@H](CC[C@]3(C)[C@@H]([C@H](C)CCCOC(=O)NS(=O)(=O)c4ccc(C(C)(C)C)cc4)CC[C@@H]23)[C@@]2(C)CC[C@@H](O)C[C@@H]12

Result:
[206, 208]

---

target_entity: human FXR (NR1H4) (Homo sapiens (Human), UniProt Q96RI1)
Sequence (Q96RI1 whole entry, the tested form may be a part): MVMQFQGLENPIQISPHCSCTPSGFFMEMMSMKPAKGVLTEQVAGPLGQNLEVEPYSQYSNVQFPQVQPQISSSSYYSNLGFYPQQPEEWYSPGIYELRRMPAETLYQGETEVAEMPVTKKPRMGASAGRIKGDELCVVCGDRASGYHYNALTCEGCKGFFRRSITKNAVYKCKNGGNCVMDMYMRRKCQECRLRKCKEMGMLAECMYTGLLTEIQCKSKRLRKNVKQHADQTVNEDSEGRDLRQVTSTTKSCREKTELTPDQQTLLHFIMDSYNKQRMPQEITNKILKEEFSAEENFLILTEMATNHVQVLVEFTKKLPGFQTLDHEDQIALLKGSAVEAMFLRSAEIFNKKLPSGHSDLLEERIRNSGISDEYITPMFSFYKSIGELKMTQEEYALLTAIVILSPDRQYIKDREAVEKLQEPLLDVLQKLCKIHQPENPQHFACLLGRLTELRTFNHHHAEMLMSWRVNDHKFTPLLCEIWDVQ
run_description: Human FXR (NR1H4) Assay (Gal4 promoter driven luciferase reporter, Indigo Bioscience kit);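 for Efficacy (%): 100% equals the efficacy of CDCA; efficacy normalized to CDCA set as 100%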
Type: cell-based
conditions_used: read-out: Efficacy (%)
quantity: Emax
In your response, the unit should come after the numeric value.

Consider the reported Emax for these compounds:
CC[C@H]1[C@@H](O)[C@@H]2[C@H](CC[C@]3(C)[C@@H]([C@H](C)CCCOC(=O)N(C)OC)CC[C@@H]23)[C@@]2(C)CC[C@@H](O)C[C@@H]12; 232%
CC[C@H]1[C@@H](O)[C@@H]2[C@H](CC[C@]3(C)[C@@H]([C@H](C)CCOC(=O)NS(=O)(=O)C(C)(C)C)CC[C@@H]23)[C@@]2(C)CC[C@@H](O)C[C@@H]12; 282%

Here's the next entry for you.
Ask: May I ask what Emax has been recorded for CC[C@H]1[C@@H](O)[C@@H]2[C@H](CC[C@]3(C)[C@@H]([C@H](C)CCOC(=O)NCCc4c[nH]c5ccccc45)CC[C@@H]23)[C@@]2(C)CC[C@@H](O)C[C@@H]12 ?
Result: 293%

---

target_entity: human FXR (NR1H4) (Homo sapiens (Human))
run_description: Human FXR (NR1H4) Assay (Gal4 promoter driven luciferase reporter, Indigo Bioscience kit)
conditions_used: Human FXR (NR1H4) Assay, potency ranges
pEC50: −log10 of the molar value.
Answer each item with its documented pEC50.

CC[C@H]1[C@@H](O)[C@@H]2[C@H](CC[C@]3(C)[C@@H]([C@H](C)COC(=O)NS(=O)(=O)c4ccc(C)cc4)CC[C@@H]23)[C@@]2(C)CC[C@@H](O)C[C@@H]12 [Example 5]; 6.00 to 7.00
CC[C@H]1[C@@H](O)[C@@H]2[C@H](CC[C@]3(C)[C@@H]([C@H](C)CCCOC(=O)NS(=O)(=O)c4cccc(C(C)(C)C)c4)CC[C@@H]23)[C@@]2(C)CC[C@@H](O)C[C@@H]12 [Example 112]; 6.00 to 7.00
CC[C@H]1[C@@H](O)[C@@H]2[C@H](CC[C@]3(C)[C@@H]([C@H](C)COC(=O)NS(=O)(=O)c4ccc(N5CCOCC5)nc4)CC[C@@H]23)[C@@]2(C)CC[C@@H](O)C[C@@H]12 [Example 15]; > 7.00
CC[C@H]1[C@@H](O)[C@@H]2[C@H](CC[C@]3(C)[C@@H]([C@H](C)CCOC(=O)NS(=O)(=O)c4ccc(F)cc4)CC[C@@H]23)[C@@]2(C)CC[C@@H](O)C[C@@H]12 [Example 46]; > 7.00

I have 4 compounds here; please give me pEC50 for each one.
1. CC[C@H]1[C@@H](O)[C@@H]2[C@H](CC[C@]3(C)[C@@H]([C@H](C)COC(=O)NS(=O)(=O)c4ccc(N5CCCCCC5)cc4)CC[C@@H]23)[C@@]2(C)CC[C@@H](O)C[C@@H]12 [Example 22]
2. CC[C@H]1[C@@H](O)[C@@H]2[C@H](CC[C@]3(C)[C@@H]([C@H](C)CCOC(=O)NS(=O)(=O)Cc4ccccc4)CC[C@@H]23)[C@@]2(C)CC[C@@H](O)C[C@@H]12 [Example 56]
3. CC[C@H]1[C@@H](O)[C@@H]2[C@H](CC[C@]3(C)[C@@H]([C@H](C)COC(=O)NS(=O)(=O)c4ccc(-n5cccn5)nc4)CC[C@@H]23)[C@@]2(C)CC[C@@H](O)C[C@@H]12 [Example 16]
4. CC[C@H]1[C@@H](O)[C@@H]2[C@H](CC[C@]3(C)[C@@H]([C@H](C)CCOC(=O)N4CCC(C)(CO)CC4)CC[C@@H]23)[C@@]2(C)CC[C@@H](O)C[C@@H]12 [Example 213]

Result:
["> 7.00", "> 7.00", "> 7.00", "> 7.00"]

// for each compound in input: emit pEC50
1. CC[C@H]1[C@@H](O)[C@@H]2[C@H](CC[C@]3(C)[C@@H]([C@H](C)COC(=O)NS(=O)(=O)c4ccc(-c5ccc(C(C)(C)C)cc5)s4)CC[C@@H]23)[C@@]2(C)CC[C@@H](O)C[C@@H]12 [Example 25]
2. CC[C@H]1[C@@H](O)[C@@H]2[C@H](CC[C@]3(C)[C@@H]([C@H](C)CCOC(=O)NS(=O)(=O)c4ccccc4OC(F)(F)F)CC[C@@H]23)[C@@]2(C)CC[C@@H](O)C[C@@H]12 [Example 77]
3. CC[C@H]1[C@@H](O)[C@@H]2[C@H](CC[C@]3(C)[C@@H]([C@H](C)COC(=O)NS(=O)(=O)c4ccc(OC)cc4)CC[C@@H]23)[C@@]2(C)CC[C@@H](O)C[C@@H]12 [Example 44-k]
4. CC[C@H]1[C@@H](O)[C@@H]2[C@H](CC[C@]3(C)[C@@H]([C@H](C)COC(=O)NS(=O)(=O)c4ccc(-c5ncco5)cc4)CC[C@@H]23)[C@@]2(C)CC[C@@H](O)C[C@@H]12 [Example 44-p]
5. CC[C@H]1[C@@H](O)[C@@H]2[C@H](CC[C@]3(C)[C@@H]([C@H](C)CCOC(=O)NCCc4cccs4)CC[C@@H]23)[C@@]2(C)CC[C@@H](O)C[C@@H]12 [Example 143]
6. CC[C@H]1[C@@H](O)[C@@H]2[C@H](CC[C@]3(C)[C@@H]([C@H](C)CCOC(=O)NS(=O)(=O)c4ccccc4C(F)(F)F)CC[C@@H]23)[C@@]2(C)CC[C@@H](O)C[C@@H]12 [Example 80]
7. CC[C@H]1[C@@H](O)[C@@H]2[C@H](CC[C@]3(C)[C@@H]([C@H](C)CCOC(=O)N4CCC4)CC[C@@H]23)[C@@]2(C)CC[C@@H](O)C[C@@H]12 [Example 162]

Result:
1: 6.00 to 7.00; 2: 6.00 to 7.00; 3: > 7.00; 4: > 7.00; 5: 6.00 to 7.00; 6: 6.00 to 7.00; 7: 6.00 to 7.00

Please state pEC50 for every compound in the list that follows.
1. CC[C@H]1[C@@H](O)[C@@H]2[C@H](CC[C@]3(C)[C@@H]([C@H](C)COC(=O)NS(=O)(=O)c4ccc(-c5ncco5)nc4)CC[C@@H]23)[C@@]2(C)CC[C@@H](O)C[C@@H]12 [Example 44-o]
2. CC[C@H]1[C@@H](O)[C@@H]2[C@H](CC[C@]3(C)[C@@H]([C@H](C)COC(=O)NS(=O)(=O)c4ccc(N5CCOCC5)cc4)CC[C@@H]23)[C@@]2(C)CC[C@@H](O)C[C@@H]12 [Example 19]

Result:
6.00 to 7.00
> 7.00
